Hey, just so you know, these numbers are from ChEMBL document CHEMBL1201862.

Exercise: state measured GI50 for each of the molecules provided.
System: TK-10
Test: NCI tumour cell line growth inhibition, 48 h
The source made the active and inactive calls. Rule as the data show it: active = GI50 up to about 1.1 µM and inactive = higher.

IN: // returns reported GI50 for input c1ccc2nn(C3CCCO3)nc2c1 (stereo not given)
OUT: > 100 µM (inactive)

IN: Would you kindly repeat that for CC(C)=C1C(=O)C[C@]2(C)C/C=C(\C)CC/C=C(\C)CC[C@@H]12 ?
OUT: 9.42 µM (inactive)

IN: What about COC(=O)[C@@H]1O[C@]12C(CO[Si](C)(C)C(C)(C)C)OC(n1ccc(=O)[nH]c1=O)C2O[Si](C)(C)C(C)(C)C (stereo not given in full) ?
OUT: 27.1 µM (inactive)

IN: Okay, and CCOc1ccccc1/N=C(/NC(=O)CC)SC ?
OUT: > 10 µM (inactive)

IN: Moving on to the next molecule: COc1cc(OC)c(C2c3cc4c(cc3OC(N3CCOCC3)C2C)OCO4)c(OC)c1 (stereo not given)
OUT: > 100 µM (inactive)

----------
Test system: SK-MEL-28
Assay: NCI tumour cell line growth inhibition, 48 h
The source made the active and inactive calls. No stated cut-off is given here; in the data, active = GI50 up to about 1.1 µM and inactive = higher.
METRIC NAME: GI50

IN: Given the entry CCCCCCCCCCCCCCCC(=O)OCC1OC(n2cc(F)c(=O)[nH]c2=O)C(NC(=O)N(CCCl)N=O)C(O)C1O (stereo not drawn) , report its measured GI50.
OUT: 2.37 µM (inactive)

IN: Proceed to Nc1c(O)c(C(=O)O)cc2ccccc12
OUT: 37.2 µM (inactive)

IN: Note, next up: COc1cccc(-c2cc(=O)c3ccccc3o2)c1N
OUT: 10.1 µM (inactive)

IN: What do you get for CC1=C(c2cc(C(=O)Nc3cc(C)ccc3C)nc(N)n2)Sc2ccccc2N1 ?
OUT: > 100 µM (inactive)

IN: // same read-out, input: COc1ccc2[nH]c3c(O)c(-c4c(C)cc5c([nH]c6ccc(OC)cc65)c4O)c(C)cc3c2c1
OUT: 5.55 µM (inactive)

IN: Another: Cc1cc(C)nc(NS(=O)(=O)c2ccc(NNc3c4ccccc4nc4c(C(=O)Nc5ccc(S(=O)(=O)Nc6ncccn6)cc5)cccc34)cc2)n1
OUT: 29.5 µM (inactive)

IN: Field entry: C=C1C(=O)O[C@@H]2C[C@@H](C)[C@@H]3C=CC(=O)[C@@]3(C)[C@@H](O)[C@H]12 [HELENALIN]
OUT: 1.76 µM (inactive)

IN: Likewise for CC(C)=C1CCC(CN2CCOCC2)C1=O (stereo not drawn) ?
OUT: 14.9 µM (inactive)

IN: Now the compound COc1cc(/C=C(\C#N)c2ccccn2)cc(Br)c1O
OUT: 26.8 µM (inactive)

IN: Next record, please: CC1[C@@H](OCc2ccccc2)COC(=O)N1Cc1ccccc1 (stereo partly drawn)
OUT: > 100 µM (inactive)

IN: Request: COc1ccc(NCc2c(O)ccc3ccccc23)cc1
OUT: 27.4 µM (inactive)

IN: Repeat with O=[N+]([O-])c1ccc2ncccc2c1CCc1c([N+](=O)[O-])ccc2ncccc12
OUT: > 100 µM (inactive)

IN: Quick one: COc1ccc(N2C(=O)C(C)SC2c2cc3cc(Br)ccc3nc2Cl)cc1 (stereo not drawn)
OUT: 38.1 µM (inactive)

IN: Further, for CN(N=O)C(=O)Nc1c[nH]c(=O)[nH]c1=O ?
OUT: > 100 µM (inactive)

IN: Next: COC(=O)c1cc(-c2ccc(-c3ccc(O)cc3)cc2)cc(-c2ccc(-c3ccc(O)cc3)cc2)c1
OUT: 13 µM (inactive)

IN: Now the same for COc1ccc2nc(NC(=O)C(=O)C(C(=O)c3ccccc3-c3ccccc3)C3OC(=O)c4ccccc43)sc2c1 (stereo not drawn)
OUT: 20.5 µM (inactive)

IN: What do you have for Nc1nc(N)c2ncn(CCCC(c3ccccc3)P(=O)(O)O)c2n1 (stereo not drawn) ?
OUT: > 100 µM (inactive)

IN: Now give it for COc1ccc(C2C(C)C(=O)C(C)C(c3ccc(OC)cc3)N2N=O)cc1 (stereo not drawn) too.
OUT: > 640 µM (inactive)

IN: What about this compound? OCCCCOC(c1ccccc1)(c1ccccc1)c1ccccc1
OUT: > 100 µM (inactive)

IN: Next entry: COC(=O)C1(Cc2ccc3c(c2)CCC3)Cc2ccccc2C1=O (stereo not drawn)
OUT: 7.14 µM (inactive)

IN: Now the same for COc1ccc(C=O)c([N+](=O)[O-])c1
OUT: > 100 µM (inactive)

IN: Follow-up entry: OC1(c2ccc3ccccc3c2)c2c(c3ccccc3c3ccccc23)C2=NCCN21 (stereo not drawn)
OUT: 2.12 µM (inactive)

IN: Ok, now CC1=NOC(=O)/C1=C/c1ccccc1O
OUT: > 100 µM (inactive)

IN: Same again, this time with C/C(=N\NC(=O)C[n+]1ccccc1)c1sc(-c2nc(C)c(/C(C)=N/NC(=O)C[n+]3ccccc3)s2)nc1C
OUT: > 100 µM (inactive)

IN: Request: N#CC1=C(N)N2C(=O)/C(=C/c3ccccc3)SC2C(c2nc3ccccc3[nH]2)=C1c1ccccc1 (stereo not drawn)
OUT: 3.12 µM (inactive)

IN: // query: COc1ccc(C2N(c3ccc(C)c(N=C=O)c3)C(=O)N3C(c4ccc(OC)cc4)N(c4ccc(C)c(N=C=O)c4)C(=O)N23)cc1 (stereo not drawn)
OUT: > 100 µM (inactive)

IN: Another compound to look at: COC(=O)C1=C(C(=O)OC)SC2(S1)C(C(=O)OC)=C(C(=O)OC)Sc1c2ssc1=O
OUT: 1.46 µM (inactive)

IN: Here is the next compound: O=c1cc(N2CCOCC2)oc2c(-c3ccccc3)cccc12 [LY-294002]
OUT: 16.9 µM (inactive)

IN: Another compound to look at: CC(=N/N=C/c1ccccn1)/C(C)=N/N=C(C)/C(C)=N/N=C(C)/C(C)=N/N=C(C)/C(C)=N\N=C\c1ccccn1
OUT: > 100 µM (inactive)

IN: Also, N#Cc1c(-c2ccccc2)c(/C=N/c2ccc(Cl)cc2)c(=O)n2c1[nH]c1ccccc12 please.
OUT: > 100 µM (inactive)

IN: Now this one: O=C(N/N=C/c1ccc2c(c1)CCC2)c1ccccc1O
OUT: 23.5 µM (inactive)

IN: Also check Cc1ccc(C(=O)/C=C(O)/C(O)=C/C(=O)c2ccc(C)cc2C)c(C)c1
OUT: 1.86 µM (inactive)

IN: // same read-out, input: CC1(C)C(=O)c2ccccc2OC1N1CCN(C2Oc3ccccc3C(=O)C2(C)C)CC1 (stereo not drawn)
OUT: > 100 µM (inactive)

IN: Then this compound: NNC(=O)c1nnn(CCc2ccccc2)c1C(=O)NN
OUT: > 100 µM (inactive)

IN: Request: CCOC(=O)c1cc2c3c(c(C(C)=O)c(O)c2[nH]1)N(C(C)=O)CC3
OUT: 34.4 µM (inactive)

IN: Cool, now Nc1nc(N)c2c(n1)NC(=O)c1c(c3ccccc3n1Cc1ccc(Cl)cc1)C2
OUT: 49 µM (inactive)

IN: Consider next the compound C=CCCCCCCCCC(=O)NS(=O)(=O)c1ccccc1 in the same way.
OUT: 99.3 µM (inactive)

IN: Now the same for Clc1ccc(Cl)c(/N=N\c2cc3c4c(c2)CCN4CCC3)c1
OUT: > 10 µM (inactive)

----------
System: A549
Assay: NCI tumour cell line growth inhibition, 48 h
Active and inactive are the calls of the source. Cut-off read from the data, not from the text of the source: active = GI50 up to about 1.1 µM and inactive = higher. *1 amine or outer side, *2 acyl side, *3 side chain or, on linkers, in order; H or OH if unused. Where a SMILES comes first, the peptide text is derived from it. Bridges are numbered along the chain shown (N, C = ends). Roman numbers before positions name the chains, in order. [ ]: non-standard residue; d: D form. Actinocin(1to9) = Cc1c2oc3c(C)ccc(C(=O)[*:2])c3nc-2c(C(=O)[*:1])c(N)c1=O; NMeY = CN[CH](Cc1ccc(O)cc1)C(=O)O; Sar = CNCC(=O)O
Form entry, call: pick from y for active, n for inactive

IN: Per the assay record, what outcome was assigned to Cc1nnc(S(=O)(=O)c2ccc(/N=N/c3c(N)nc(N)nc3N)cc2)s1 ?
OUT: n

IN: And what about the compound COc1cccc2c1C(=O)c1c(O)c3c(c(O)c1C2=O)C[C@@](O)(C(C)O)C[C@@H]3OC1CC(N)C(O)C(C)O1 (some centres undefined) ?
OUT: y

IN: For Fc1ccc(C(=C2CCN(CCc3ccc4[nH]c(=S)[nH]c4c3)CC2)c2ccc(F)cc2)cc1 then?
OUT: n

IN: Quick one: COC(=O)[C@@H]1O[C@]12C(CO[Si](C)(C)C(C)(C)C)OC(n1ccc(=O)[nH]c1=O)C2O[Si](C)(C)C(C)(C)C (some centres undefined)
OUT: n

IN: Also COc1c(C)cc2c(C(C)C)c(O)c(O)c(C=O)c2c1O , if possible.
OUT: n

IN: CN(Nc1cc(=O)[nH]c(=O)[nH]1)c1ccccc1 , same question.
OUT: n

IN: Next compound up: C=CCN(CCNS(=O)(=O)c1ccc(C)cc1)S(=O)(=O)c1ccc(C)cc1
OUT: n

IN: Again, but for CCCCC(C(=O)CCC(=O)Nc1ccc(Cl)c(Cl)c1)C(=O)C(C)C (centres undefined)
OUT: n

IN: Record: O=C(CCCN1CCC(Nc2ccc(F)cc2)(c2nnnn2C2CCCCC2)CC1)c1ccc(F)cc1
OUT: n

IN: Same lookup for Clc1cc(N/N=C(/c2ccccc2)c2ncccn2)ncn1 , please.
OUT: n

IN: Another compound to look at: COc1ccc(CC2C(=O)OC(C)C(NC(=O)c3c4nc5c(C(=O)NC6C(=O)NC(C(C)C)C(=O)N7CCCC7C(=O)N(C)CC(=O)N(C)C(Cc7ccc(OC)cc7)C(=O)OC6C)ccc(C)c5oc-4c(C)c(=O)c3N)C(=O)NC(C(C)C)C(=O)N3CCCC3C(=O)N(C)CC(=O)N2C)cc1 (centres undefined) (I: TVP[Sar][NMeY](Me) / II: TVP[Sar][NMeY](Me); ester I:1-I:C, II:1-II:C; linker I:N-II:N via Actinocin(1to9); configuration not given here)
OUT: y

IN: // query: C[C@H](CCC(=O)O[C@@H]1CC[C@@]2(C)C(CC[C@H]3[C@@H]4CC[C@H]([C@H](C)CCc5nc6ccccc6[nH]5)[C@@]4(C)CC[C@@H]32)C1)[C@H]1CC[C@H]2[C@@H]3CCC4C[C@H](O)CC[C@]4(C)[C@H]3CC[C@]12C (some centres undefined)
OUT: n

IN: What do you get for O=C(NC12CC3CC(CC(C3)C1)C2)C(=O)c1c[nH]c2ccc([N+](=O)[O-])cc12 ?
OUT: n

IN: Consider next the compound O=C(O)CNS(=O)(=O)c1ccc(NC(=O)Nc2ccccc2)cc1 in the same way.
OUT: n
